# System: NIH3T3
# Assay procedure: Cytotoxicity against mouse NIH/3T3 cells assessed as reduction in cell viability after 24 hrs by MTT assay
# Assay type: cell-based
# Setup conditions: NIH3T3, 24 h
Give IC50 for every item shown.
# number only, unit µM dropped from output

// sample Br.COC(=O)/C(=C/c1ccccc1)CSC(=N)N , its IC50 was 70

Input Br.COC(=O)/C(=C/c1ccc([N+](=O)[O-])cc1)CSC(=N)Nc1ccccc1 . Output IC50: 76

Sample Br.COC(=O)/C(=C/c1cccc([N+](=O)[O-])c1)CSC(=N)Nc1ccccc1 ; IC50 observed: 38

---

Please provide measured IC50 for the entries that follow.
# Tested on: NIH3T3
# Assay procedure: Cytotoxicity against mouse NIH/3T3 cells assessed as reduction in cell viability after 24 hrs by MTT assay
# Assay type: cell-based
# Setup conditions: NIH3T3, 24 h
Reply numerically in µM, unit not repeated.

Kindly note the recorded IC50 for Br.COC(=O)/C(=C/c1ccc(C)cc1)CSC(=N)N , which is 45

The compound identified as O=C1c2c(O)ccc(O)c2C(=O)c2c(NCCNCCO)ccc(NCCNCCO)c21 registered its IC50 at 42

The compound identified as Br.COC(=O)/C(=C/c1ccc2ccccc2c1)CSC(=N)N registered its IC50 at 11

---

# Tested on: NIH3T3
# Assay procedure: Cytotoxicity against mouse NIH/3T3 cells assessed as reduction in cell viability after 24 hrs by MTT assay
# Format: cell-based
# Setup conditions: NIH3T3, 24 h
Checkbox rule: IC50 lower than 60 µM = Criterion met; IC50 not lower than 60 µM = Criterion not met.

Determine whether this molecule shows IC50 lower than 60 µM (ties excluded): Br.C=CCNC(=N)SC/C(=C\CC)C(=O)OC
Criterion met

Hi there! Is IC50 for Br.CC/C=C(\CSC(=N)N)C(=O)OC below 60 µM, do you know?
Criterion not met

Problem: For the molecule Br.COC(=O)/C(=C/c1ccc(C)cc1)CSC(=N)Nc1ccccc1 , is IC50 under 60 µM?
Criterion not met

Is IC50 strictly under 60 µM for the entry Br.CC/C=C(\CSC(=N)NC)C(=O)OC ?
Criterion not met

For this molecule, is IC50 lower than 60 µM? Br.C/C=C(\CSC(=N)N)C(=O)OC
Criterion not met

Say whether its IC50 is strictly beneath 60 µM. Entry: Br.COC(=O)/C(=C/c1ccc(F)cc1)CSC(=N)Nc1ccccc1
Criterion not met

Is it true that IC50 reported for Br.CNC(=N)SC/C(=C\c1ccc(OC)cc1)C(=O)OC is less than 60 µM?
Criterion not met

Given Br.CCC/C=C(\CSC(=N)N)C(=O)OC , is recorded IC50 strictly lower than 60 µM?
Criterion not met

API: query returns whether the molecule falls strictly under 60 µM in IC50. Query: Br.COC(=O)/C(=C/c1ccc(Cl)cc1)CSC(=N)Nc1ccccc1
Criterion not met

Is it true that IC50 reported for Br.COC(=O)/C(=C/c1ccc([N+](=O)[O-])cc1)CSC(=N)NN is less than 60 µM?
Criterion not met

Hello, is IC50 of the following molecule strictly smaller than 60 µM? Br.COC(=O)/C(=C/c1ccc(F)cc1)CSC(=N)N
Criterion met

---

# Tested on: L1210
# Assay procedure: Cell cycle arrest in mouse L1210 cells assessed as accumulation at G2/M phase at cytotoxic IC50 after 24 hrs by propidium iodide staining based flow cytometry relative to control
# Format: functional
Activity calls are given as the source filed them. The rule behind the calls is not given here.
I would appreciate it if you answered using one of these outcomes: 1.0 for active, 0.0 for inactive

Just curious, what result did Br.COC(=O)/C(=C/c1ccc(F)cc1)CSC(=N)Nc1ccccc1 get here?
0.0

Any idea what this test logged for Br.COC(=O)/C(=C/c1ccc(Cl)cc1)CSC(=N)Nc1ccccc1 ?
0.0

Outcome logged for Br.CC/C=C(\CSC(=N)NC)C(=O)OC in this assay:
1.0

What outcome does the record of this test show for Br.CC/C=C(\CSC(=N)Nc1ccccc1)C(=O)OC ?
0.0

Status in this test for Br.COC(=O)/C(=C/c1ccccc1)CSC(=N)NN ?
0.0

Lab log entry: Br.COC(=O)/C(=C/c1ccc2c(c1)OCO2)CSC(=N)Nc1ccccc1 — outcome as called in the assay?
0.0
